The measurements presented in this section are drawn from patent US20250136696A1.

Molecular target: T1, biotinylated human B7-H7 protein (Acro Biosystems, B77-H82F5) (human, UniProt Q9UM44 23-344, biotinylated)
T1 construct: Bought soluble protein; also called biotin-B7H7 protein
T1 sequence (looked up): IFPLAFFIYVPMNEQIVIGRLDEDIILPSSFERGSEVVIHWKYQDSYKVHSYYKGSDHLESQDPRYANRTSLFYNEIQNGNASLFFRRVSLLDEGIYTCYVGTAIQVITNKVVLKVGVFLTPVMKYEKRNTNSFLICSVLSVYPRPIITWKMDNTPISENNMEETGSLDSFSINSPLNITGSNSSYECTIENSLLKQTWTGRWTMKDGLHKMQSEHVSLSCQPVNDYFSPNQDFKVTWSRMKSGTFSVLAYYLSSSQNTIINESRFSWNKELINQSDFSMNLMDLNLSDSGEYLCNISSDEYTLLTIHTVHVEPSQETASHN
Assay: BLI epitope competition on SA-captured biotinylated B7-H7; competitor (first antibody) PR003249
attributeMeasured: Competitive inhibition rate (%)
Numbers only; they are read as %.

## Input Would you mind telling me what Competitive inhibition rate (%) value was observed for PR003260 (antibody, human IgG1, kappa, V domains shown, Human IgG1; also called 70F3B1) VH: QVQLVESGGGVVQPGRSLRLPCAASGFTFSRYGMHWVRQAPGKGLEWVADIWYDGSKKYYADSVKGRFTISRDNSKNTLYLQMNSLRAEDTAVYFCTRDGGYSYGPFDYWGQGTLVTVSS VL: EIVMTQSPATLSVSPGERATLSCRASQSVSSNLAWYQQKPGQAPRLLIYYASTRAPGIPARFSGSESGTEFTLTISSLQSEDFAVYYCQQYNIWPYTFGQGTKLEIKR ?
## Output -3.18
